Recorded Total Cell Count for the following compounds
- System: Fibroblast
- assay-overview: Multiplex assay against human fibroblast
- Assay type: toxicity, cell-based
- conditions: 24 h, 1 µM, compound concentration 1 uM, replicate 1
Returns: the value as a bare number; no unit string appended.

In the examples that follow, each entry is paired with its recorded Total Cell Count.
>>> obs_value("COc1ccc(-c2ccc3ncc4c(c3c2)n(-c2ccc(N3CCNCC3)c(C(F)(F)F)c2)c(=O)n4C)cn1.O=C(O)/C=C\\C(=O)O")
115
>>> obs_value("CC(C)c1noc(N2CCC(COc3ccc(-c4ccc(S(C)(=O)=O)cc4)nc3)CC2)n1")
112
>>> obs_value("Cc1ccc2c(c1)c1c(n2CCc2ccc(C)nc2)CCN(C)C1 [LATREPIRDINE]")
140

So what's the measured Total Cell Count for this one? `O=c1[nH]c2ccccc2n1C1CCN(Cc2ccc(-c3[nH]c4cc5ncnc5cc4nc3-c3ccccc3)cc2)CC1`
268

Then `CNC(=O)Nc1ccc2c(c1)[C@@]1(CC2)OC(=O)N(CC(=O)N(Cc2ccc(F)cc2)[C@@H](C)C(F)(F)F)C1=O` ?
300

----------
- System: Fibroblast
- assay-overview: Multiplex assay against human fibroblast
- Type: toxicity, cell-based
- conditions: 24 h, 1 µM, compound concentration 1 uM, replicate 2
Could you please mark Fulfilled for values of Total Cell Count below 80 and Not fulfilled for values at or above it?

Record excerpt, results attached:
>>> discrete_label("O=C(c1cc2c(cc1F)OC(c1ccc(F)cc1)(c1ccc(Cl)cc1Cl)O2)N1CCOCC1 (stereo not drawn)")
"Not fulfilled"
>>> discrete_label("CC(C)NC(=O)N1CC[C@H](NC2=Nc3cc(F)ccc3N(CC(F)F)c3ccc(Cl)cc32)C1")
"Not fulfilled"
>>> discrete_label("C=CC(=O)Nc1cccc(Sc2nc(Nc3ccc(N4CCN(C)CC4)cc3)ncc2Cl)c1")
"Fulfilled"

Please examine the following record next.
Does the reported Total Cell Count of `CC(C)c1noc(N2CCC(COc3ccc(-c4ccc(S(C)(=O)=O)cc4)nc3)CC2)n1` stay below 80?
Not fulfilled

----------
- System: Fibroblast
- assay-overview: Multiplex assay against human fibroblast
- Type: toxicity, cell-based
- conditions: 12 h, 10 µM, compound concentration 10 uM, replicate 2
Recorded Population Fragmented Nuclei (%) for the following compounds
The reply should contain only the number, in %.

>>> obs_value("CC(C)OC(=O)N1CCC(Oc2ncnc3c2cnn3-c2ccc(S(C)(=O)=O)cc2F)CC1")
5
>>> obs_value("Cc1ccc2c(c1)c1c(n2CCc2ccc(C)nc2)CCN(C)C1 [LATREPIRDINE]")
7
>>> obs_value("O=c1cc(N2CCOCC2)oc2c(-c3cccc4c3sc3ccccc34)cccc12")
19
>>> obs_value("Cc1cccc(CN2CCN(C(c3ccccc3)c3ccc(Cl)cc3)CC2)c1.Cl.Cl (stereo not given)")
14

Next, consider the following compound.
So what's the measured Population Fragmented Nuclei (%) for this one? `O=c1[nH]c2ccccc2n1C1CCN(Cc2ccc(-c3[nH]c4cc5ncnc5cc4nc3-c3ccccc3)cc2)CC1`
46

----------
- System: U2OS
- assay-overview: Multiplex assay against U2OS
- Format: toxicity, cell-based
- conditions: human, 12 h, 10 µM, compound concentration 10 uM, replicate 1
metric-name: Population Healthy Nuclei (%)
The reply should contain only the number, in %.

In the examples that follow, each entry is paired with its recorded Population Healthy Nuclei (%).
>>> obs_value("O=c1cc(N2CCOCC2)oc2c(-c3cccc4c3sc3ccccc34)cccc12")
47
>>> obs_value("CC(C)OC(=O)N1CCC(Oc2ncnc3c2cnn3-c2ccc(S(C)(=O)=O)cc2F)CC1")
77
>>> obs_value("CCc1nn(CCCN2CCN(c3cccc(Cl)c3)CC2)c(=O)n1CCOc1ccccc1.Cl [NEFAZODONE HYDROCHLORIDE]")
55
>>> obs_value("Cc1c[nH]c2nccc(Oc3c(F)cc(Nc4cc(Cl)nc(N)n4)cc3F)c12")
59
>>> obs_value("O=C(c1cc2c(cc1F)OC(c1ccc(F)cc1)(c1ccc(Cl)cc1Cl)O2)N1CCOCC1 (stereo not drawn)")
67
>>> obs_value("CNC(=O)Nc1ccc2c(c1)[C@@]1(CC2)OC(=O)N(CC(=O)N(Cc2ccc(F)cc2)[C@@H](C)C(F)(F)F)C1=O")
85
>>> obs_value("CC1=C(C(=O)Nc2cc3cn[nH]c3cc2F)C(c2ccc(C(F)(F)F)cc2)CC(=O)N1 (stereo not drawn)")
77

Next, consider the following compound.
So what's the measured Population Healthy Nuclei (%) for this one? `Cl.O=C(O)c1cc(-c2ccc(C3CCNCC3)cc2)c2ccc(-c3ccc(C(F)(F)F)cc3)cc2c1`
74

----------
- System: HEK-293T
- assay-overview: Multiplex assay against HEK293T
- Assay type: toxicity, cell-based
- conditions: human, 12 h, 1 µM, compound concentration 1 uM, replicate 1
Could you please mark label 1 for values of Population Mitotic Cells (%) below 70% and label 0 for values at or above it?

Record excerpt, results attached:
>>> discrete_label("CC(C)CC(=O)Nc1[nH]nc2c1CN(C(=O)C1CCN(C)CC1)C2(C)C [PHA-793887]")
"label 0"
>>> discrete_label("Cc1cccc(CN2CCN(C(c3ccccc3)c3ccc(Cl)cc3)CC2)c1.Cl.Cl (stereo not drawn)")
"label 1"
>>> discrete_label("O=c1[nH]c2ccccc2n1C1CCN(Cc2ccc(-c3[nH]c4cc5ncnc5cc4nc3-c3ccccc3)cc2)CC1")
"label 0"

Does the reported Population Mitotic Cells (%) of C[C@]12CC[C@@H]3c4ccc(O)cc4CC[C@H]3[C@@H]1CC[C@@H]2O [ESTRADIOL] stay below 70%?
label 1

Then CC1=C(C(=O)Nc2cc3cn[nH]c3cc2F)C(c2ccc(C(F)(F)F)cc2)CC(=O)N1 (stereo not drawn) ?
label 1

Then C=CC(=O)Nc1ccc2[nH]c(=O)n(C3CCN(Cc4ccc(-c5nc6cc[nH]c(=O)c6cc5-c5ccccc5)cc4)CC3)c2c1 [Borussertib] ?
label 0

Then `CCOC(=O)Nc1cc(-c2ccc(C)c(NS(C)(=O)=O)c2)nn2c(C)nnc12` ?
label 0

----------
Recorded Total Cell Count for the following compounds
- Test system: Fibroblast
- assay-overview: Multiplex assay against human fibroblast
- Assay type: toxicity, cell-based
- conditions: 12 h, 10 µM, compound concentration 10 uM, replicate 1
Returns: the value as a bare number; no unit string appended.

>>> obs_value("Cc1ccc(C)c(Oc2ccncc2C(=O)N2CCN(C3CC3)c3ccccc32)c1")
178

So what's the measured Total Cell Count for this one? CC(C)c1noc(N2CCC(COc3ccc(-c4ccc(S(C)(=O)=O)cc4)nc3)CC2)n1 [GSK-1292263]
160

Then COc1ccc(-c2ccc3ncc4c(c3c2)n(-c2ccc(N3CCNCC3)c(C(F)(F)F)c2)c(=O)n4C)cn1.O=C(O)/C=C\C(=O)O [BGT-226] ?
89

Then `Cl.O=C(O)c1cc(-c2ccc(C3CCNCC3)cc2)c2ccc(-c3ccc(C(F)(F)F)cc3)cc2c1` ?
122

Then CN1CCN(Cc2ccc(Nc3ncc(Cl)c(Nc4ccccc4S(=O)(=O)N(C)C)n3)cc2)CC1 [DUBERMATINIB] ?
125

Then CCCSc1nc(N[C@@H]2C[C@H]2c2ccc(F)c(F)c2)c2nnn([C@@H]3C[C@H](OCCO)[C@@H](O)[C@H]3O)c2n1 [TICAGRELOR] ?
139

----------
- System: HEK-293T
- assay-overview: Multiplex assay against HEK293T
- Format: toxicity, cell-based
- conditions: human, 12 h, 10 µM, compound concentration 10 uM, replicate 1
metric-name: Population Mitochondria Different-Phenotype (%)
The reply should contain only the number, in %.

>>> obs_value("C=CC(=O)Nc1ccc2[nH]c(=O)n(C3CCN(Cc4ccc(-c5nc6cc[nH]c(=O)c6cc5-c5ccccc5)cc4)CC3)c2c1")
25
>>> obs_value("CC(C)CC(=O)Nc1[nH]nc2c1CN(C(=O)C1CCN(C)CC1)C2(C)C")
7
>>> obs_value("CC1=C(C(=O)Nc2cc3cn[nH]c3cc2F)C(c2ccc(C(F)(F)F)cc2)CC(=O)N1 (stereo not given)")
64
>>> obs_value("C=CC(=O)Nc1cccc(Sc2nc(Nc3ccc(N4CCN(C)CC4)cc3)ncc2Cl)c1")
13
>>> obs_value("CC(C)Oc1ccccc1C(=O)Nc1ccccc1C(=O)Nc1cccc(S(=O)(=O)C(F)(F)F)c1")
91

Next, consider the following compound.
So what's the measured Population Mitochondria Different-Phenotype (%) for this one? `COc1ccccc1CN[C@H]1C2CCN(CC2)[C@H]1C(c1ccccc1)c1ccccc1`
100

----------
Recorded Population Pyknosed Nuclei (%) for the following compounds
- System: U2OS
- assay-overview: Multiplex assay against U2OS
- Assay type: toxicity, cell-based
- conditions: human, 12 h, 1 µM, compound concentration 1 uM, replicate 2
The reply should contain only the number, in %.

In the examples that follow, each entry is paired with its recorded Population Pyknosed Nuclei (%).
>>> obs_value("C=CC(=O)Nc1cccc(Oc2nc(Nc3ccc(N4CCN(C)CC4)cc3OC)ncc2Cl)c1")
41
>>> obs_value("Cc1cccc(CN2CCN(C(c3ccccc3)c3ccc(Cl)cc3)CC2)c1.Cl.Cl (stereo not given)")
3
>>> obs_value("CC(C)(C)NC[C@H](O)COc1nsnc1N1CCOCC1")
5
>>> obs_value("C=CC(=O)Nc1cccc(Sc2nc(Nc3ccc(N4CCN(C)CC4)cc3)ncc2Cl)c1")
71

Next, consider the following compound.
So what's the measured Population Pyknosed Nuclei (%) for this one? O=C(c1cc2c(cc1F)OC(c1ccc(F)cc1)(c1ccc(Cl)cc1Cl)O2)N1CCOCC1 (stereo not given)
12
